Test system: HeLa Kyoto
assayText: melting temperature (median over replicates), in situ; higher = more thermally stable
experimentalParameters: cell cycle stage: G1/S
experimentalReadout: melting temperature (°C)
The reply should be a number in °C, with the unit left off.

MAAQQRDCGGAAQLAGPAAEADPLGRFTCPVCLEVYEKPVQVPCGHVFCSACLQECLKPKKPVCGVCRSALAPGVRAVELERQIESTETSCHGCRKNFFLSKIRSHVATCSKYQNYIMEGVKATIKDASLQPRNVPNRYTFPCPYCPEKNFDQEGLVEHCKLFHSTDTKSVVCPICASMPWGDPNYRSANFREHIQRRHRFSYDTFVDYDVDEEDMMNQVLQRSIIDQ [RNF114] | 53.2

Now consider the entry below.
Entry MASSNTVLMRLVASAYSIAQKAGMIVRRVIAEGDLGIVEKTCATDLQTKADRLAQMSICSSLARKFPKLTIIGEEDLPSEEVDQELIEDSQWEEILKQPCPSQYSAIKEEDLVVWVDPLDGTKEYTEGLLDNVTVLIGIAYEGKAIAGVINQPYYNYEAGPDAVLGRTIWGVLGLGAFGFQLKEVPAGKHIITTTRSHSNKLVTDCVAAMNPDAVLRVGGAGNKIIQLIEGKASAYVFASPGCKKWDTCAPEVILHAVGGKLTDIHGNVLQYHKDVKHMNSAGVLATLRNYDYYASRVPESIKNALVP [BPNT1] under HeLa Kyoto had melting temperature of 57.5

---

Tested on: HeLa Kyoto
assayText: melting temperature (median over replicates), in situ; higher = more thermally stable
experimentalParameters: cell cycle stage: G1/S
experimentalReadout: melting temperature (°C)
The reply should be a number in °C, with the unit left off.

Please review the following examples before continuing.
MATHGQTCARPMCIPPSYADLGKAARDIFNKGFGFGLVKLDVKTKSCSGVEFSTSGSSNTDTGKVTGTLETKYKWCEYGLTFTEKWNTDNTLGTEIAIEDQICQGLKLTFDTTFSPNTGKKSGKIKSSYKRECINLGCDVDFDFAGPAIHGSAVFGYEGWLAGYQMTFDSAKSKLTRNNFAVGYRTGDFQLHTNVNDGTEFGGSIYQKVCEDLDTSVNLAWTSGTNCTRFGIAAKYQLDPTASISAKVNNSSLIGVGYTQTLRPGVKLTLSALVDGKSINAGGHKVGLALELEA [VDAC2] | 59.9
MWTLGRRAVAGLLASPSPAQAQTLTRVPRPAELAPLCGRRGLRTDIDATCTPRRASSNQRGLNQIWNVKKQSVYLMNLRKSGTLGHPGSLDETTYERLAEETLDSLAEFFEDLADKPYTFEDYDVSFGSGVLTVKLGGDLGTYVINKQTPNKQIWLSSPSSGPKRYDWTGKNWVYSHDGVSLHELLAAELTKALKTKLDLSSLAYSGKDA [FXN] | 53

Now consider the entry below.
The reported melting temperature of the sequence MGLETEKADVQLFMDDDSYSHHSGLEYADPEKFADSDQDRDPHRLNSHLKLGFEDVIAEPVTTHSFDKVWICSHALFEISKYVMYKFLTVFLAIPLAFIAGILFATLSCLHIWILMPFVKTCLMVLPSVQTIWKSVTDVIIAPLCTSVGRCFSSVSLQLSQD [CAV2] was 56.1

---

# reported solubility change mitosis (log2); entries follow
Test system: HeLa Kyoto
assayText: solubility change mitosis vs G1/S (difference of NP-40 vs SDS log2 ratios) (log2 ratio difference); higher = more soluble in mitosis

Please review the following examples before continuing.
MTSRSTARPNGQPQASKICQFKLVLLGESAVGKSSLVLRFVKGQFHEYQESTIGAAFLTQSVCLDDTTVKFEIWDTAGQERYHSLAPMYYRGAQAAIVVYDITNQETFARAKTWVKELQRQASPSIVIALAGNKADLANKRMVEYEEAQAYADDNSLLFMETSAKTAMNVNDLFLAIAKKLPKSEPQNLGGAAGRSRGVDLHEQSQQNKSQCCSN [RAB5B] | -0.207
MSCINLPTVLPGSPSKTRGQIQVILGPMFSGKSTELMRRVRRFQIAQYKCLVIKYAKDTRYSSSFCTHDRNTMEALPACLLRDVAQEALGVAVIGIDEGQFFPDIVEFCEAMANAGKTVIVAALDGTFQRKPFGAILNLVPLAESVVKLTAVCMECFREAAYTKRLGTEKEVEVIGGADKYHSVCRLCYFKKASGQPAGPDNKENCPVPGKPGEAVAARKLFAPQQILQCSPAN [TK1] | -0.138

The reported solubility change mitosis (log2) of the sequence MAAGAAEAAVAAVEEVGSAGQFEELLRLKAKSLLVVHFWAPWAPQCAQMNEVMAELAKELPQVSFVKLEAEGVPEVSEKYEISSVPTFLFFKNSQKIDRLDGAHAPELTKKVQRHASSGSFLPSANEHLKEDLNLRLKKLTHAAPCMLFMKGTPQEPRCGFSKQMVEILHKHNIQFSSFDIFSDEEVRQGLKAYSSWPTYPQLYVSGELIGGLDIIKELEASEELDTICPKAPKLEERLKVLTNKASVMLFMKGNKQEAKCGFSKQILEILNSTGVEYETFDILEDEEVRQGLKAYSNWPTYPQLYVKGELVGGLDIVKELKENGELLPILRGEN [GLRX3] was -0.111

---

Tested on: HeLa Kyoto
assayText: melting temperature (median over replicates), in situ; higher = more thermally stable
experimentalParameters: cell cycle stage: mitosis
experimentalReadout: melting temperature (°C)
The reply should be a number in °C, with the unit left off.

The reported melting temperature of the sequence MAAALFVLLGFALLGTHGASGAAGFVQAPLSQQRWVGGSVELHCEAVGSPVPEIQWWFEGQGPNDTCSQLWDGARLDRVHIHATYHQHAASTISIDTLVEEDTGTYECRASNDPDRNHLTRAPRVKWVRAQAVVLVLEPGTVFTTVEDLGSKILLTCSLNDSATEVTGHRWLKGGVVLKEDALPGQKTEFKVDSDDQWGEYSCVFLPEPMGTANIQLHGPPRVKAVKSSEHINEGETAMLVCKSESVPPVTDWAWYKITDSEDKALMNGSESRFFVSSSQGRSELHIENLNMEADPGQYRCNGTSSKGSDQAIITLRVRSHLAALWPFLGIVAEVLVLVTIIFIYEKRRKPEDVLDDDDAGSAPLKSSGQHQNDKGKNVRQRNSS [BSG] was 59.8

The reported melting temperature of the sequence MELWPCLAAALLLLLLLVQLSRAAEFYAKVALYCALCFTVSAVASLVCLLRHGGRTVENMSIIGWFVRSFKYFYGLRFEVRDPRRLQEARPCVIVSNHQSILDMMGLMEVLPERCVQIAKRELLFLGPVGLIMYLGGVFFINRQRSSTAMTVMADLGERMVRENLKVWIYPEGTRNDNGDLLPFKKGAFYLAVQAQVPIVPVVYSSFSSFYNTKKKFFTSGTVTVQVLEAIPTSGLTAADVPALVDTCHRAMRTTFLHISKTPQENGATAGSGVQPAQ [AGPAT2] was 52.2

The reported melting temperature of the sequence MMIHGFQSSHRDFCFGPWKLTASKTHIMKSADVEKLADELHMPSLPEMMFGDNVLRIQHGSGFGIEFNATDALRCVNNYQGMLKVACAEEWQESRTEGEHSKEVIKPYDWTYTTDYKGTLLGESLKLKVVPTTDHIDTEKLKAREQIKFFEEVLLFEDELHDHGVSSLSVKIRVMPSSFFLLLRFFLRIDGVLIRMNDTRLYHEADKTYMLREYTSRESKISSLMHVPPSLFTEPNEISQYLPIKEAVCEKLIFPERIDPNPADSQKSTQVE [TIPRL] was 51.3

The reported melting temperature of the sequence MGSAGLSRLHGLFAVYKPPGLKWKHLRDTVELQLLKGLNARKPPAPKQRVRFLLGPMEGSEEKELTLTATSVPSFINHPLVCGPAFAHLKVGVGHRLDAQASGVLVLGVGHGCRLLTDMYNAHLTKDYTVRGLLGKATDDFREDGRLVEKTTYDHVTREKLDRILAVIQGSHQKALVMYSNLDLKTQEAYEMAVRGLIRPMNKSPMLITGIRCLYFAPPEFLLEVQCMHETQKELRKLVHEIGLELKTTAVCTQVRRTRDGFFTLDSALLRTQWDLTNIQDAIRAATPQVAAELEKSLSPGLDTKQLPSPGWSWDSQGPSSTLGLERGAGQ [TRUB2] was 50

The reported melting temperature of the sequence MGAPLLSPGWGAGAAGRRWWMLLAPLLPALLLVRPAGALVEGLYCGTRDCYEVLGVSRSAGKAEIARAYRQLARRYHPDRYRPQPGDEGPGRTPQSAEEAFLLVATAYETLKDEETRKDYDYMLDHPEEYYSHYYHYYSRRLAPKVDVRVVILVSVCAISVFQFFSWWNSYNKAISYLATVPKYRIQATEIAKQQGLLKKAKEKGKNKKSKEEIRDEEENIIKNIIKSKIDIKGGYQKPQICDLLLFQIILAPFHLCSYIVWYCRWIYNFNIKGKEYGEEERLYIIRKSMKMSKSQFDSLEDHQKETFLKRELWIKENYEVYKQEQEEELKKKLANDPRWKRYRRWMKNEGPGRLTFVDD [DNAJC25] was 50.2

The reported melting temperature of the sequence MSDAAVDTSSEITTKDLKEKKEVVEEAENGRDAPANGNAENEENGEQEADNEVDEEEEEGGEEEEEEEEGDGEEEDGDEDEEAESATGKRAAEDDEDDDVDTKKQKTDEDD [PTMA] was 55.1

The reported melting temperature of the sequence MWPPCGTLRTLALARSRGARACSGDGGVSYTQGQSPEPRTREYFYYVDHQGQLFLDDSKMKNFITCFKDPQFLVTFFSRLRPNRSGRYEAAFPFLSPCGRERNFLRCEDRPVVFTHLLTADHGPPRLSYCGGGEALAVPFEPARLLPLAANGRLYHPAPERAGGVGLVRSALAFELSACFEYGPGAPALPSHVRWQGRRLALTMDLAPLLLAARSP [C8ORF82] was 54.3

The reported melting temperature of the sequence MCAARLAAAAAAAQSVYAFSARPLAGGEPVSLGSLRGKVLLIENVASLUGTTVRDYTQMNELQRRLGPRGLVVLGFPCNQFGHQENAKNEEILNSLKYVRPGGGFEPNFMLFEKCEVNGAGAHPLFAFLREALPAPSDDATALMTDPKLITWSPVCRNDVAWNFEKFLVGPDGVPLRRYSRRFQTIDIEPDIEALLSQGPSCA [GPX1] was 56.6

The reported melting temperature of the sequence MSAEVETSEGVDESEKKNSGALEKENQMRMADLSELLKEGTKEAHDRAENTQFVKDFLKGNIKKELFKLATTALYFTYSALEEEMERNKDHPAFAPLYFPMELHRKEALTKDMEYFFGENWEEQVQCPKAAQKYVERIHYIGQNEPELLVAHAYTRYMGDLSGGQVLKKVAQRALKLPSTGEGTQFYLFENVDNAQQFKQLYRARMNALDLNMKTKERIVEEANKAFEYNMQIFNELDQAGSTLARETLEDGFPVHDGKGDMRKCPFYAAEQDKGALEGSSCPFRTAMAVLRKPSLQFILAAGVALAAGLLAWYYM [HMOX2] was 51

The reported melting temperature of the sequence MAAPAPGLISVFSSSQELGAALAQLVAQRAACCLAGARARFALGLSGGSLVSMLARELPAAVAPAGPASLARWTLGFCDERLVPFDHAESTYGLYRTHLLSRLPIPESQVITINPELPVEEAAEDYAKKLRQAFQGDSIPVFDLLILGVGPDGHTCSLFPDHPLLQEREKIVAPISDSPKPPPQRVTLTLPVLNAARTVIFVATGEGKAAVLKRILEDQEENPLPAALVQPHTGKLCWFLDEAAARLLTVPFEKHSTL [PGLS] was 55.2
